Test: Renal clearance in healthy human at 5 mg, po administered as single dose coadministered with 100 mg of ritonavir by high-pressure liquid chromatography-tandem mass spectrometry/mass spectrometry method
Assay type: ADME, organism-based, Kidney
Conditions: in vivo, read-out: CL_renal (converted)
MEASURED ATTRIBUTE: CL renal (mL/min)
# value in mL/min; strip the unit string

// query Item CCN1c2ncc(CCOc3cc[n+]([O-])c4ccccc34)cc2C(=O)N(C)c2cccnc21 : provide CL renal
// result 6.03

====

Test: AUC (0 to infinity) in healthy human at 12.5 mg, po administered as single dose coadministered with 100 mg of ritonavir
Type: ADME, organism-based
Parameters: dose 12.5 mg, route oral, time infinity
Settings: plasma
MEASURED ATTRIBUTE: AUC(0-inf) (ng·h/mL)
# value in ng·h/mL; strip the unit string

// query Item CCN1c2ncc(CCOc3cc[n+]([O-])c4ccccc34)cc2C(=O)N(C)c2cccnc21 : provide AUC(0-inf)
// result 1960

====

Assay: Apparent volume of distribution in terminal phase in healthy human at 100 mg, po administered as single dose
Assay type: ADME, organism-based
Settings: in vivo, read-out: Vz/F
MEASURED ATTRIBUTE: Vd/F (L)
# value in L; strip the unit string

// query Item CCN1c2ncc(CCOc3cc[n+]([O-])c4ccccc34)cc2C(=O)N(C)c2cccnc21 : provide Vd/F
// result 213

====

Assay: Apparent volume of distribution in terminal phase in healthy human at 37.5 mg, po administered as single dose coadministered with 100 mg of ritonavir
Format: ADME, organism-based
Settings: in vivo, read-out: Vz/F
MEASURED ATTRIBUTE: Vd/F
// unit must come after the numeric part

// query Item CCN1c2ncc(CCOc3cc[n+]([O-])c4ccccc34)cc2C(=O)N(C)c2cccnc21 [BILR 355] : provide Vd/F
// result 104 L

====

Test: Apparent oral clearance in healthy human at 62.5 mg, po administered as single dose coadministered with 100 mg of ritonavir
Assay type: ADME, organism-based
Details: in vivo
MEASURED ATTRIBUTE: CL/F (mL/min)
# value in mL/min; strip the unit string

// query Item CCN1c2ncc(CCOc3cc[n+]([O-])c4ccccc34)cc2C(=O)N(C)c2cccnc21 : provide CL/F
// result 141

====

Experiment: Renal clearance in healthy human at 25 mg, po administered as single dose coadministered with 100 mg of ritonavir by high-pressure liquid chromatography-tandem mass spectrometry/mass spectrometry method
Type: ADME, organism-based, Kidney
Settings: in vivo, read-out: CL_renal (converted)
MEASURED ATTRIBUTE: CL renal (mL/min)
# value in mL/min; strip the unit string

// query Item CCN1c2ncc(CCOc3cc[n+]([O-])c4ccccc34)cc2C(=O)N(C)c2cccnc21 : provide CL renal
// result 6.5

====

Test: Renal clearance in healthy human at 25 mg, po administered as single dose by high-pressure liquid chromatography-tandem mass spectrometry/mass spectrometry method
Type: ADME, organism-based, Kidney
Conditions: in vivo, read-out: CL_renal (converted)
MEASURED ATTRIBUTE: CL renal
// unit must come after the numeric part

// query Item CCN1c2ncc(CCOc3cc[n+]([O-])c4ccccc34)cc2C(=O)N(C)c2cccnc21 [BILR 355] : provide CL renal
// result 11.5 mL/min

====

Assay: Tmax in healthy human at 5 mg, po administered as single dose coadministered with 100 mg of ritonavir
Assay type: ADME, organism-based
Conditions: in vivo
MEASURED ATTRIBUTE: Tmax (h)
# value in h; strip the unit string

// query Item CCN1c2ncc(CCOc3cc[n+]([O-])c4ccccc34)cc2C(=O)N(C)c2cccnc21 : provide Tmax
// result 5.71

====

Test: Mean residence time in healthy human at 5 mg, po administered as single dose
Format: ADME, organism-based
Conditions: in vivo
MEASURED ATTRIBUTE: MRT (h)
# value in h; strip the unit string

// query Item CCN1c2ncc(CCOc3cc[n+]([O-])c4ccccc34)cc2C(=O)N(C)c2cccnc21 [BILR 355] : provide MRT
// result 7.74

====

Assay: Drug excretion in healthy human urine assessed as unchanged drug at 37.5 mg, po administered as single dose coadministered with 100 mg of ritonavir by high-pressure liquid chromatography-tandem mass spectrometry/mass spectrometry method
Assay type: ADME, organism-based
Conditions: read-out: Drug uptake
MEASURED ATTRIBUTE: dose excreted (%)
# value in %; strip the unit string

// query Item CCN1c2ncc(CCOc3cc[n+]([O-])c4ccccc34)cc2C(=O)N(C)c2cccnc21 : provide dose excreted
// result 4.58

====

Assay: AUC (0 to last) in healthy human at 25 mg, po administered as single dose coadministered with 100 mg of ritonavir
Assay type: ADME, organism-based
Set-up: dose 25 mg, route oral, time 0 - last
Conditions: plasma
MEASURED ATTRIBUTE: AUC(0-t) (ng·h/mL)
# value in ng·h/mL; strip the unit string

// query Item CCN1c2ncc(CCOc3cc[n+]([O-])c4ccccc34)cc2C(=O)N(C)c2cccnc21 [BILR 355] : provide AUC(0-t)
// result 4140

====

Assay: Half life in healthy human at 62.5 mg, po administered as single dose coadministered with 100 mg of ritonavir
Type: ADME, organism-based
Conditions: in vivo
MEASURED ATTRIBUTE: half-life (h)
# value in h; strip the unit string

// query Item CCN1c2ncc(CCOc3cc[n+]([O-])c4ccccc34)cc2C(=O)N(C)c2cccnc21 [BILR 355] : provide half-life
// result 9.73

====

Assay: Apparent volume of distribution at steady state in healthy human at 50 mg, po administered as single dose
Format: ADME, organism-based
Details: in vivo, read-out: Vss/F
MEASURED ATTRIBUTE: Vd/F
// unit must come after the numeric part

// query Item CCN1c2ncc(CCOc3cc[n+]([O-])c4ccccc34)cc2C(=O)N(C)c2cccnc21 : provide Vd/F
// result 390 L

====

Assay: Cmax in healthy human at 62.5 mg, po administered as single dose coadministered with 100 mg of ritonavir by high-pressure liquid chromatography-tandem mass spectrometry/mass spectrometry method
Type: ADME, organism-based
Design: dose 62.5 mg, route oral
Conditions: in vivo
MEASURED ATTRIBUTE: Cmax (ng/mL)
# value in ng/mL; strip the unit string

// query Item CCN1c2ncc(CCOc3cc[n+]([O-])c4ccccc34)cc2C(=O)N(C)c2cccnc21 : provide Cmax
// result 653

====

Assay: Renal clearance in healthy human at 62.5 mg, po administered as single dose coadministered with 100 mg of ritonavir by high-pressure liquid chromatography-tandem mass spectrometry/mass spectrometry method
Format: ADME, organism-based, Kidney
Settings: in vivo, read-out: CL_renal (converted)
MEASURED ATTRIBUTE: CL renal
// unit must come after the numeric part

// query Item CCN1c2ncc(CCOc3cc[n+]([O-])c4ccccc34)cc2C(=O)N(C)c2cccnc21 [BILR 355] : provide CL renal
// result 7.17 mL/min

====

Assay: Apparent oral clearance in healthy human at 25 mg, po administered as single dose coadministered with 100 mg of ritonavir
Assay type: ADME, organism-based
Settings: in vivo
MEASURED ATTRIBUTE: CL/F (mL/min)
# value in mL/min; strip the unit string

// query Item CCN1c2ncc(CCOc3cc[n+]([O-])c4ccccc34)cc2C(=O)N(C)c2cccnc21 [BILR 355] : provide CL/F
// result 98

====

Assay: Drug excretion in healthy human urine assessed as unchanged drug at 87.5 mg, po administered as single dose coadministered with 100 mg of ritonavir by high-pressure liquid chromatography-tandem mass spectrometry/mass spectrometry method
Assay type: ADME, organism-based
Settings: read-out: Drug uptake
MEASURED ATTRIBUTE: dose excreted (%)
# value in %; strip the unit string

// query Item CCN1c2ncc(CCOc3cc[n+]([O-])c4ccccc34)cc2C(=O)N(C)c2cccnc21 [BILR 355] : provide dose excreted
// result 5.96

====

Test: Apparent volume of distribution at steady state in healthy human at 25 mg, po administered as single dose
Format: ADME, organism-based
Settings: in vivo, read-out: Vss/F
MEASURED ATTRIBUTE: Vd/F

// query Item CCN1c2ncc(CCOc3cc[n+]([O-])c4ccccc34)cc2C(=O)N(C)c2cccnc21 : provide Vd/F
// result 914 L

====

Experiment: Apparent volume of distribution in terminal phase in healthy human at 75 mg, po administered as single dose
Assay type: ADME, organism-based
Conditions: in vivo, read-out: Vz/F
MEASURED ATTRIBUTE: Vd/F (L)
# value in L; strip the unit string

// query Item CCN1c2ncc(CCOc3cc[n+]([O-])c4ccccc34)cc2C(=O)N(C)c2cccnc21 : provide Vd/F
// result 832

====

Experiment: Tmax in healthy human at 50 mg, po administered as single dose
Format: ADME, organism-based
Settings: in vivo
MEASURED ATTRIBUTE: Tmax (min)
# value in min; strip the unit string

// query Item CCN1c2ncc(CCOc3cc[n+]([O-])c4ccccc34)cc2C(=O)N(C)c2cccnc21 : provide Tmax
// result 40
